Tested on: M14 melanoma
Assay: NCI-60 one-dose screen, 48 h
Settings: 10 µM unless noted
About 83,000 compounds went through this panel and 20% of them were active in at least one assay; those are over-represented in the sample as a whole. The source made the active and inactive calls. How the source made its calls: active means growth percent below 10; inactive means the rest.
Choose one outcome from this list and give only that: active, inactive

{"COMPOUND": "COC(=O)c1c(C(=O)OC)c2ccc3c4ncccc4ccc3n2c1C(=O)c1ccc(C)cc1", "GROUP": "inactive"}

Test call, this compound: O=C(OCc1ccc2c(Br)cc(Br)c(O)c2n1)N1CCN(C(=O)c2cc3ccccc3[nH]2)CC1
inactive

Test call, this compound: CN1CCN(Cc2ccc(NC(=O)c3cncc(C#Cc4cnc(N)c5ncccc45)c3)cc2Cl)CC1
inactive

Test call, this compound: C#CCOC(=O)C(N)CSSCC(N)C(=O)O (stereo unspecified)
inactive

Test call, this compound: CCN(CC)CCOc1ccc(/C(=C(\C)Cc2ccc(OC)cc2)c2ccc(O)cc2)cc1
active

Test call, this compound: Cc1cc2nc(C(Cl)Cl)nc(-c3ccccc3)n2n1
inactive

Test call, this compound: CCOC(=O)C1=C(c2ccccc2)N=C2SC=C(c3cccc([N+](=O)[O-])c3)N2C1c1ccc(O)cc1 (stereo unspecified)
inactive

Test call, this compound: COc1cc2c(c(OC)c1OC)CCC(c1cccc(C(=O)Nc3ccccc3Br)c1)O2 (stereo unspecified)
inactive

Test call, this compound: C#Cc1ccc(NC(=O)Cc2ccc(/C=C/C(=O)c3nccn3C)cc2)cc1
inactive

Test call, this compound: C=C(CNCCc1ccc(O)cc1)[C@@H]1CC[C@]2(CO)CC[C@]3(C)[C@H](CC[C@@H]4[C@@]5(C)CCC(N)C(C)(C)[C@@H]5CC[C@]43C)[C@@H]12 (stereo partly specified)
active

Test call, this compound: COc1ccc(-c2nc3cc(C(=O)NC4CCCCC4)ccc3n2C2CCCCC2)cc1
inactive

Test call, this compound: Cn1cc(-c2nc(-c3c[nH]c4c(Cl)nccc34)cs2)c2ccccc21
inactive

Test call, this compound: CC(C)(C)CC(C)(C)Nc1c(-c2c(O)c3ccccc3oc2=O)nc2sccn12
inactive

Test call, this compound: COc1ccc(-c2ccc(-c3ccc(C(=N)N)o3)o2)cc1
inactive

Test call, this compound: O=c1ccc2nc(-c3ccccc3)nn(-c3ccccn3)c-2c1
inactive

###

System: SW-620 colon
Assay: NCI-60 one-dose screen, 48 h
Settings: 10 µM unless noted
Compounds without any hit were thinned out: in the full panel of roughly 83,000, 20% have a hit. Calls of active or inactive are those of the source. How the source made its calls: active means growth percent below 10; inactive means the rest.
Choose one outcome from this list and give only that: 1 for active, 0 for inactive

Test call, this compound: O=C1c2cccnc2C(=O)c2c1c(C(=O)OCCCN1CCOCC1)c1ccccn21
1

###

System: SK-MEL-5 melanoma
Experiment: NCI-60 one-dose screen, 48 h
Details: 10 µM unless noted
About 83,000 compounds went through this panel and 20% of them were active in at least one assay; those are over-represented in the sample as a whole. Activity calls are given as the source filed them. The calls were made as follows: active = growth percent below 10; inactive = the rest.
Choose one outcome from this list and give only that: true (1) for active, false (0) for inactive

Reference set (4 entries):
{"COMPOUND": "COc1cccc(-c2cc(-c3ccc(Nc4nc(Nc5ccc(Cl)cc5)nc(Nc5ccc(Cl)cc5)n4)cc3)nc(N)c2C#N)c1", "GROUP": "false (0)"}
{"COMPOUND": "CCCCCCCCNc1ncnc2c1ncn2Cc1nnc2c3ccccc3c(Cl)nn12", "GROUP": "false (0)"}
{"COMPOUND": "Cn1cc(-c2csc(-c3cn(C)c4ccc(F)cc34)n2)c2cnccc21", "GROUP": "true (1)"}
{"COMPOUND": "COc1nc2ccccc2cc1/C=C1/C=C(c2ccccc2)NC1=O", "GROUP": "false (0)"}

Test call, this compound: O=[N+]([O-])c1ccc(Oc2cccc3c(Oc4ccc([N+](=O)[O-])cc4[N+](=O)[O-])cccc23)c([N+](=O)[O-])c1
false (0)

Test call, this compound: CCCCCN(CCCCC)CC(O)c1c(Cl)ccc2ccccc12 (centres undefined)
false (0)

Test call, this compound: CC(=O)Cc1nsc(NC(=O)c2cc(-c3cc(Cl)ccc3Cl)oc2C)n1
false (0)

###

Test system: 786-0 renal
Assay: NCI-60 one-dose screen, 48 h (100 = growth as untreated, 0 = no growth, -100 = all killed)
Conditions: 10 µM unless noted
The panel holds about 83,000 compounds, 20% with a hit somewhere; the sample as a whole holds those more often. Active and inactive are the calls of the source. Rule for the calls: active = growth percent below 10; inactive = the rest.
PROPERTY: growth

Use the examples below as a reference point.
{"COMPOUND": "c1ccc(Cn2cc3c(c2)-c2nc(Nc4ccccc4)ncc2CC3)cc1", "growth": "97.3% [100 µM] (inactive)"}
{"COMPOUND": "CCCCCCCCOC(=O)c1c(C)[nH]c(/C=C2\\N=C(c3ccc[nH]3)C=C2OC)c1C", "growth": "-40.1% (active)"}

For each entry beneath this line, provide reported growth.
1. COc1ccc(Nc2nc(Nc3cc(C)[nH]n3)c3cc(OC)c(OC)cc3n2)cc1
2. CO[C@H]1CC(c2ccc[nH]2)=N[C@]12O[C@@H](C)C[C@@H]1CCCCCCCc3ccc([nH]3)[C@H]12
3. COC1CC(O)C2=C(CC3C(/C(C)=C\CC=C(C)C)CCC3(C)O2)C1=O (stereo not given)

1: -83.3% [20 µM] (active); 2: 11.7% (inactive); 3: 103% (inactive)

###

Test system: NCI-H23 lung
Assay: NCI-60 one-dose screen, 48 h (100 = growth as untreated, 0 = no growth, -100 = all killed)
Details: 10 µM unless noted
The panel holds about 83,000 compounds, 20% with a hit somewhere; the sample as a whole holds those more often.
Assign condition met whenever growth does not fall below 80%; assign condition not met whenever it does.

{"COMPOUND": "C[C@@H]1N=C(c2ccc(Cl)cc2Cl)Nc2nc3ccccn3c2C1=O", "GROUP": "condition not met"}
{"COMPOUND": "COc1c(O[C@@H]2OC(CO)[C@H](O)[C@H](O)C2O)cc2oc3cc(O)c(CC=C(C)C)c(O)c3c(=O)c2c1CC=C(C)C (stereo not given in full)", "GROUP": "condition met"}
{"COMPOUND": "Nc1ncnc2c1N=C(c1ccc([N+](=O)[O-])cc1)CC(c1ccc3c(c1)OCO3)N2 (stereo not given)", "GROUP": "condition met"}

Below: the item to evaluate.
Kindly determine if growth recorded for COc1ccc(NC(=O)c2sc3nc(C)c(C(=O)c4ccccc4)cc3c2N)cc1 is above or exactly 80%.
condition met

###

System: TK-10 renal
Assay: NCI-60 one-dose screen, 48 h
Settings: 10 µM unless noted
This is part of a sample that, as a whole, favours compounds with a hit. Of some 83,000 tested, about 20% had one in any assay. Active and inactive are the calls of the source. Rule for the calls: active = growth percent below 10; inactive = the rest.
Choose one outcome from this list and give only that: active, inactive

Test call, this molecule: CCOC(=O)CSc1nc2sc3c(c2c(=O)n1-c1ccccc1)CCCCC3
inactive

Test call, this molecule: O=C(CNc1ncco1)Nc1ccc(S(=O)(=O)c2ccc(NC(=O)CNc3ncco3)cc2)cc1
inactive

Test call, this molecule: Cn1ccnc1C(=O)/C=C/c1ccc(CC(=O)Nc2cc(F)c(F)c(F)c2)cc1
inactive

Test call, this molecule: CCOc1ccccc1NC(=O)CCC(=O)OC
inactive

Test call, this molecule: CCOC(=O)c1c(NC(=S)Nc2ccc([N+](=O)[O-])cc2)sc2c1CCCCC2
inactive

Test call, this molecule: COc1ccc(-c2ccc(-c3ccc(C(=N)N)o3)o2)cc1
inactive

Test call, this molecule: N#Cc1nn(-c2ccccn2)c(N)c1C#N
inactive

Test call, this molecule: COc1ccc(-c2nc(SCCC(C)C)nc(N/N=C(/C)c3ccc(N)cc3)c2C#N)cc1
inactive

Test call, this molecule: CCOC(=O)c1c(C)nc2c(c1N)C(=O)C(=O)N2CCc1ccc(OC)c(OC)c1
inactive

Test call, this molecule: O=C(Nc1ncc(Cc2ccc(Cl)cc2)s1)C1=NCCCCN1
inactive

Test call, this molecule: COc1cccc(-c2cc(-c3ccc(Nc4nc(Nc5ccc(Cl)cc5)nc(Nc5ccc(Cl)cc5)n4)cc3)nc(N)c2C#N)c1
active

Test call, this molecule: CNc1nc2ncc(-c3c(C)noc3C)cc2n1Cc1ccccc1
inactive

Test call, this molecule: Cn1cc(-c2ccc3c(Nc4cccc(NC(=O)Nc5cccc(F)c5)c4)ncnc3c2)cn1
inactive

Test call, this molecule: CCCCCCCC/C=C\CCCCCCCCOc1ccc(CC(=O)NCC[N+]2(C)CCCC2)cc1
inactive

Test call, this molecule: COc1ccc(N/N=C/c2ccc3c(c2)Sc2ccccc2N3C)cc1
inactive

Test call, this molecule: Cn1cc(-c2csc(-c3cn(CCO)c4ccc(F)cc34)n2)c2cccnc21
inactive

###

Tested on: DU-145 prostate
Assay: NCI-60 one-dose screen, 48 h
Conditions: 10 µM unless noted
Procedure: Cells are grown in 96 well plates and exposed to the test compound for 48 hours. Compounds are tested at a single concentration, which is 10^-5 M for most compounds. The reported endpoint is percent growth (GI% or GIPRCNT), where numbers from 0 - 100% represent growth inhibition, and numbers from -100% - 0 represent cell death. For example, a value of 40 represents 60% growth inhibition. A value of 0 means no net growth occurred over the course of the experiment. […]
About 83,000 compounds went through this panel and 20% of them were active in at least one assay; those are over-represented in the sample as a whole. The source made the active and inactive calls. How the source made its calls: active means growth percent below 10; inactive means the rest.
Choose one outcome from this list and give only that: yes for active, no for inactive

{"COMPOUND": "O=C1CC2C=CCN2C=C1NC(=O)c1ccccc1 (stereo unspecified)", "GROUP": "no"}
{"COMPOUND": "COc1ccc(C(=O)/C=C/c2ccc(Cl)cc2)cc1S(N)(=O)=O", "GROUP": "no"}
{"COMPOUND": "C=C1CC[C@@H]2[C@](C)(COC(C)=O)[C@H](OC(C)=O)CC[C@@]2(C)[C@@H]1CC(Nc1ccc(S(=O)(=O)Nc2nccc(C)n2)cc1)C1=CCOC1=O (stereo partly specified)", "GROUP": "no"}
{"COMPOUND": "CCOC(=O)CC1CSC(N/N=C(/C)c2cccc(C(F)(F)F)c2)=N1 (stereo unspecified)", "GROUP": "no"}

Below: the item to evaluate.
Test call, this compound: COc1ccc(NC(=O)c2ccc(NC3=C(c4ccc(Cl)cc4)C(=O)NC3=O)cc2)cc1
no
